test system: Escherichia coli; assay: Compound was evaluated for in vitro antibacterial activity against Escherichia coli 1507 E strain by agar dilution method; type: functional
The reader will find reported MIC values listed item by item below.
Write the value in mg/L as a bare number.

Sample records with MIC:
Compound	Endpoint Label	Units Of Measure	Measurement
C[C@H]1C([C@H](O)C(C)(C)C)=C(C(=O)[O-])N2C(=O)[C@H]([C@@H](C)O)C12.[Na+] (some centres undefined)	MIC	mg/L	0.781
CC(C)[C@H](O)C1=C(C(=O)[O-])N2C(=O)[C@H]([C@@H](C)O)C2[C@H]1C.[Na+] (some centres undefined)	MIC	mg/L	0.391
CCC(C)[C@@H](O)C1=C(C(=O)[O-])N2C(=O)[C@H]([C@@H](C)O)C2[C@H]1C.[Na+] (some centres undefined)	MIC	mg/L	0.195

Now look at this one.
Asked: Given the entry C[C@H]1C([C@@H](O)C2CC2)=C(C(=O)[O-])N2C(=O)[C@H]([C@@H](C)O)C12.[Na+] (some centres undefined) , report its measured MIC.
Given back: 0.195
